Quick list: Kd per entry.
Target: T1, cynomolgus monkey CTLA4-his protein (Acro biosystems, Cat#CT4-C5227) (cynomolgus monkey, UniProt G7PL88 36-161)
T1 construct: bought recombinant protein; also called Cynomolgus CTLA4-his; not shown: his tag
T1 sequence: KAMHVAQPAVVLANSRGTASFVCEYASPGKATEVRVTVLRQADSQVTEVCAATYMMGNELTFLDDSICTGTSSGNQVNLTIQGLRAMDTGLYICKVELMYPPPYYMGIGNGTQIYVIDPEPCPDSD
Experiment: SPR, Biacore T200; antibody captured, CTLA4-his as analyte

INSERT INTO results (binder, value_reported) VALUES
  ('mouse anti-CTLA4 monoclonal antibody D2A4 (antibody, V domains shown, mouse mAb purified from hybridoma supernatant) VH: QVQLQQPGAELVKPGSSVNLSCKASGYTFTSYWVHWVKQGPGRGLEWIGRIDPNRGGTYYNENFKTKAALTVDSPSSTAYMHLSSLTSEDSAVYYCARGGLNYYALDYWGQGTSVTVSS VL: DIQMTQSPASLFASLGETVTITCRASENIYSYLAWYQQKQGKSPQLLVYNANTLTEGVPSSFSGSGSGTQFSLKINTLQPEDFGTYYCQHHYGIPFTFGSGTKLEIK', '2.24 nM');

Report Kd, nothing else, for this binder: mouse anti-CTLA4 monoclonal antibody D1H4 (antibody, V domains shown, mouse mAb purified from hybridoma supernatant) VH: EVQLQQSGPVLVKPGASVKMSCKASGYTFTDYYMNWVKQSHGKSLEWIGAINPDHGGSSYNQKFKGKATLTVDKSSSTAYMELNSLTSEDSAVYYCARDGSIHYVMDDWGQGTSVTVSS VL: DIVMSQSPSSLTVSAGDKVTMSCKSSQSLLHSGNQKNYLAWYQQKPWQPPKLLIYGASTRESGVPDRFTGSGSGTDFTLTISSVQAEDLAVYYCQNDYGYPYTFGGGTKLEIK
0.727 nM
